- Tested on: SN12C renal
- assayProcedure: NCI-60 one-dose screen, 48 h (100 = growth as untreated, 0 = no growth, -100 = all killed)
- protocolConditions: 10 µM unless noted
This is part of a sample that, as a whole, favours compounds with a hit. Of some 83,000 tested, about 20% had one in any assay.
Class key for growth values: bin 0: < 40%; bin 1: ≥ 40% and < 80%; bin 2: ≥ 80%

Which class does Cc1ccc(C(=O)CSc2nc(-c3ccc(Br)cc3)c(C#N)c(=O)[nH]2)cc1 fall in?
bin 2

Which class does CNC(=O)c1cc(Oc2cccc3nc(Nc4ccc(F)c(Cl)c4)ccc23)ccn1 fall in?
bin 1

Which class does CCSC1=NC2C(N(CC)C(=O)N2CC)N1/N=C/C=C/c1ccccc1[N+](=O)[O-] (stereo unspecified) fall in?
bin 0

Which class does CCCCCCCCCCCC(c1ccccc1)[N+](C)(C)C (stereo unspecified) fall in?
bin 0

Which class does CC1=C(SCCC(=O)OC(C[Se]C2=C(C)C(=O)c3ccccc3C2=O)C(=O)NCCCCCC(=O)OCc2ccccc2)C(=O)c2ccccc2C1=O (stereo unspecified) fall in?
bin 0

Which class does COc1cccc(-c2nn(-c3ccccc3)cc2-c2ccnc(NCCCNC(=O)c3ccc(F)cc3)c2)c1 fall in?
bin 1

Which class does C=C(C)[C@@H]1CC[C@]2(C)[C@H](CC=C3[C@@H]4CC(C)(C)CC[C@]4(C(N)=O)CC[C@]32C)[C@@]1(C)CCC#N fall in?
bin 0

Which class does Cc1ccc(-c2cc(-c3cccnc3)[nH]c(=O)c2C#N)cc1 fall in?
bin 2

Which class does COc1ccc(Cl)cc1NC(=O)C(Br)C(Br)C(=O)O (stereo unspecified) fall in?
bin 1

Which class does COc1cc(N=Nc2cc(Cc3ccc(N(C)C)cc3)c(N)cc2N(C)C)c2ncccc2c1 fall in?
bin 0

Which class does NC(=S)Nc1cccc(O)c1 fall in?
bin 2

Which class does COc1ccc(OC)c2c1[nH]c(=O)c1c3ncccc3cn21 fall in?
bin 0

Which class does COc1cc(/C=C/C(=O)c2c(C)nc3ccccc3c2/C=C/c2ccc(C)cc2)cc(OC)c1OC fall in?
bin 0

Which class does O=C1N=c2cc3c(cc2=C/C1=C/c1sc(=S)n(CCc2ccc(O)cc2)c1O)OCCO3 fall in?
bin 0

Which class does Nc1n[nH]c(-c2cc(Cl)ccc2O)c1-c1ccccc1 fall in?
bin 2

Which class does NC(=O)c1ccc[n+](Cc2ccc(Cl)cc2Cl)c1 fall in?
bin 2

Which class does CCCCCc1nc2c(c3c1CCCC3)CCCC2 fall in?
bin 2

Which class does COc1ccc(-c2nc(SCCC(C)C)nc(N/N=C\c3cccc(Cl)c3)c2C#N)cc1 fall in?
bin 1

Which class does O=C(NC(Cc1nnc2n(Cc3ccccc3)c(=O)c3c4c(sc3n12)CCCC4)c1ccc(Cl)cc1)c1ccccc1 (stereo unspecified) fall in?
bin 2

Which class does COc1cccc(-c2nn(-c3ccccc3)cc2-c2ccnc(NCCNC(=O)c3ccccc3)c2)c1 fall in?
bin 1

Which class does Cc1ccc(Cl)cc1NC(=O)c1cc2ccccc2cc1O fall in?
bin 0

Which class does O=c1[nH][n+](-c2ccc(Cl)cc2)no1 fall in?
bin 1

Which class does N/C(=N/N=C/c1ccccc1)N/N=C\c1ccccc1 fall in?
bin 1

Which class does c1ccc2cc3nc4cc5ccccc5cc4nc3cc2c1 fall in?
bin 2

Which class does CN1CCN(CC(=O)Nc2nc(-c3cccc(NS(=O)(=O)c4cccc5c(N(C)C)cccc45)c3)cs2)CC1 fall in?
bin 1

Which class does Cc1ccc(Cl)c(NS(=O)(=O)c2ccc(-c3cnc(C4CC4)o3)cc2)c1 fall in?
bin 1

Which class does O=C(/C=C/c1c(Cl)nc2sccn12)c1ccc(F)c(F)c1 fall in?
bin 1

Which class does NC(N)=NN=C(c1ccccc1)c1ccccc1 fall in?
bin 1

Which class does COc1ccc(OC)c(-c2c(C#N)c(-c3ccc(Cl)cc3)nc3c2c(-c2ccccc2)nn3-c2ccccc2)c1 fall in?
bin 2

Which class does O=c1[nH]nc(-c2ccccc2)c2c(-c3ccccc3)onc12 fall in?
bin 1

Which class does O=C1CCC2=C3C4CCCCC4C(=O)C4CCCC(OC2C1)C34 (stereo unspecified) fall in?
bin 0

Which class does COc1ccc(N2CCN(c3nc(-c4cc(OC)c(OC)c(OC)c4)nc4ccccc34)CC2)cc1 fall in?
bin 2

Which class does CC(C)(C)CC(C)(C)Nc1c(-c2ccncc2)nc2cnccn12 fall in?
bin 2

Which class does COc1cc2c(cc1-c1c(C)noc1C)ncc1nc(C3CCC(F)(F)CC3)n(C3CCC(OC(F)F)CC3)c12 (stereo unspecified) fall in?
bin 1

Which class does COc1ccc(NC(=O)CSc2nnc(-c3cc(-c4ccccc4)nc4ccccc34)n2-c2ccccc2)cc1 fall in?
bin 2

Which class does Nc1ccc2c(c1)c(N)nn2C(=O)Nc1ccc(Cc2ccccc2)cc1 fall in?
bin 1

Which class does COc1cc(/C=C/C(=O)c2cccc(-n3cc(-c4ccccc4)[nH]c3=O)c2)ccc1O fall in?
bin 0

From: PubChem BioAssay (NCI)
